target: hERG (KCNH2) (Homo sapiens); experiment: Inhibition of hERG expressed in CHO cells at 5 ug/mL by rubidium efflux assay; assay type: toxicity, cell-based; conditions: CHO cells that express hERG
Sequence (Q12809 whole entry): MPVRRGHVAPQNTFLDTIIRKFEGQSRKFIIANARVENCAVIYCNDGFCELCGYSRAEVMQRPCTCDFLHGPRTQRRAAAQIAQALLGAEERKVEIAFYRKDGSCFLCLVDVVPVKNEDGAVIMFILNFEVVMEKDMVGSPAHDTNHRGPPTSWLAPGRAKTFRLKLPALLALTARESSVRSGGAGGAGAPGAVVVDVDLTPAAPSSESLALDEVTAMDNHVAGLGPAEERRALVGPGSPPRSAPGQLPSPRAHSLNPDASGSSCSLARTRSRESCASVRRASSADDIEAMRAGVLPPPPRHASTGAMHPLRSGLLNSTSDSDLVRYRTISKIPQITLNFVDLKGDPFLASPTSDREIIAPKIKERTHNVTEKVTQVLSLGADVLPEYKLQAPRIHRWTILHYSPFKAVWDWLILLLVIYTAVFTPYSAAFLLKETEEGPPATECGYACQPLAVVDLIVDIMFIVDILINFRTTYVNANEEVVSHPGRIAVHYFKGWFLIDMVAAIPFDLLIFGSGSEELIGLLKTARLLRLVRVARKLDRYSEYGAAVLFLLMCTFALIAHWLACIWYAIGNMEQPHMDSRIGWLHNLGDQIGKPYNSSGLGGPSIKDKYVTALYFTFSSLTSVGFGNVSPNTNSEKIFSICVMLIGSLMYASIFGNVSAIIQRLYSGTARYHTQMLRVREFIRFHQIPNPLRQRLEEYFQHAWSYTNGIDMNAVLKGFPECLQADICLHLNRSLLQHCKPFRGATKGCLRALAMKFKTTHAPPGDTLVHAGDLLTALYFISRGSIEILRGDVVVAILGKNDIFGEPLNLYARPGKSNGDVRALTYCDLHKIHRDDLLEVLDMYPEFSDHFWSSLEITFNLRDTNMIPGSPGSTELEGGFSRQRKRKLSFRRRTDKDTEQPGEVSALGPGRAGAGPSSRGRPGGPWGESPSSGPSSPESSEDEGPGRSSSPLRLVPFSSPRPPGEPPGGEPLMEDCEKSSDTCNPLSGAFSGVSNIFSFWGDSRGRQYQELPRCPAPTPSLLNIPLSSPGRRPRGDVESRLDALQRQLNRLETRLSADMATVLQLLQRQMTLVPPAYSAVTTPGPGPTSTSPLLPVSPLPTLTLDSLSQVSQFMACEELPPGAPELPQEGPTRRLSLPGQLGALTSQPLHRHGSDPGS
# inhibition at 5 ug/mL annotations
measurement kind: inhibition at 5 ug/mL (%)

molecule: CC(C)N(CCN(C(=O)Nc1ccc(F)c(Cl)c1)[C@@H]1CC[C@]2(c3cccc(CN)c3)CC2C1)C(C)C (stereo not given in full)
measurement kind: inhibition at 5 ug/mL
value measured: 32
//
molecule: CC(C)N(CCF)CCN(C(=O)Nc1ccc(F)c(Cl)c1)[C@@H]1CC[C@]2(c3cccc(C#N)c3)CC2C1 (stereo not given in full)
measurement kind: inhibition at 5 ug/mL
value measured: 50
//
molecule: N#Cc1cccc([C@]23CC[C@@H](N(CCN4CC[C@@H](O)C4)C(=O)Nc4ccc(F)c(Cl)c4)CC2C3)c1 (stereo not given in full)
measurement kind: inhibition at 5 ug/mL
value measured: 80
//
molecule: CC(C)N(CCF)CCN(C(=O)Nc1cc(Cl)nc(Cl)c1)[C@@H]1CC[C@]2(c3cccc(C#N)c3)CC2C1 (stereo not given in full)
measurement kind: inhibition at 5 ug/mL
value measured: 50
//
molecule: CC(C)N(CCN(C(=O)Nc1cc(Cl)nc(Cl)c1)[C@@H]1CC[C@]2(c3cccc(C#N)c3)CC2C1)[C@@H](C)CO (stereo not given in full)
measurement kind: inhibition at 5 ug/mL
value measured: 60
//
molecule: CCS(=O)(=O)N1CCC(CN(C(=O)Nc2ccc(F)c(F)c2)[C@@H]2CC[C@]3(c4cccc(C#N)c4)CC3C2)CC1 (stereo not given in full)
measurement kind: inhibition at 5 ug/mL
value measured: 59
//
molecule: CS(=O)(=O)N1CCC(CN(C(=O)Nc2ccc(F)c(F)c2)[C@@H]2CC[C@]3(c4cccc(C#N)c4)CC3C2)CC1 (stereo not given in full)
measurement kind: inhibition at 5 ug/mL
value measured: 34
//
molecule: CNC(=O)N1CCC(CN(C(=O)Nc2ccc(F)c(C(F)(F)F)c2)[C@@H]2CC[C@]3(c4cccc(C#N)c4)CC3C2)CC1 (stereo not given in full)
measurement kind: inhibition at 5 ug/mL
value measured: 18
//
molecule: CS(=O)(=O)N1CCC[C@H]1CN(C(=O)Nc1ccc(F)c(Cl)c1)[C@@H]1CC[C@]2(c3cccc(C#N)c3)CC2C1 (stereo not given in full)
measurement kind: inhibition at 5 ug/mL
value measured: 13
//
molecule: CS(=O)(=O)N1CCCCC1CN(C(=O)Nc1ccc(F)c(Cl)c1)[C@@H]1CC[C@]2(c3cccc(C#N)c3)CC2C1 (stereo not given in full)
measurement kind: inhibition at 5 ug/mL
value measured: 3
//
molecule: CC(C)N(CCN(C(=O)Nc1ccc(F)c(Cl)c1)[C@@H]1CC[C@]2(c3cccc(CO)c3)CC2C1)C(C)C (stereo not given in full)
measurement kind: inhibition at 5 ug/mL
value measured: 67
//
molecule: CN(C)Cc1cccc([C@]23CC[C@@H](N(CC4CCN(S(C)(=O)=O)CC4)C(=O)Nc4ccc(F)c(Cl)c4)CC2C3)c1 (stereo not given in full)
measurement kind: inhibition at 5 ug/mL
value measured: 8
//
molecule: CC(C)N(CCN(C(=O)Nc1ccc(F)c(Cl)c1)[C@@H]1CC[C@]2(c3cccc(CN(C)C)c3)CC2C1)C(C)C (stereo not given in full)
measurement kind: inhibition at 5 ug/mL
value measured: 5
//
molecule: CS(=O)(=O)N1CCC(CN(C(=O)Nc2cccc(F)c2)[C@@H]2CC[C@]3(c4cccc(C#N)c4)CC3C2)CC1 (stereo not given in full)
measurement kind: inhibition at 5 ug/mL
value measured: 47
//
molecule: CC(C)N(CCN(C(=O)Nc1ccc(F)c(Cl)c1)[C@@H]1CC[C@]2(c3cccc(CNS(C)(=O)=O)c3)CC2C1)C(C)C (stereo not given in full)
measurement kind: inhibition at 5 ug/mL
value measured: 46

* * *

target: UniProt:Q8JZL2; experiment: Ex vivo displacement of [125I]S36057 binding from mouse brain MCHR1 at 30 mg/kg, po after 24 hrs; format: functional, organism-based; design: dose 30 mg/kg
Active and inactive are the calls of the source. The rule behind the calls is not given here.

molecule: CC(C)N(CCO)CCN(C(=O)Nc1cc(Cl)nc(Cl)c1)[C@@H]1CC[C@]2(c3cccc(C#N)c3)CC2C1 (stereo partly drawn)
tested target: UniProt:Q8JZL2
Activity: inactive
--
molecule: N#Cc1ccc(C2=CCC(N(CCN3CCCC3)C(=O)Nc3ccc(F)c(Cl)c3)CC2)s1 (stereo not drawn)
tested target: UniProt:Q8JZL2
Activity: 97%
--
molecule: N#Cc1cccc([C@]23CC[C@@H](N(CCNCCF)C(=O)Nc4cc(Cl)nc(Cl)c4)CC2C3)c1 (stereo partly drawn)
tested target: UniProt:Q8JZL2
Activity: 32%
--
molecule: CC(C)N(CCN(C(=O)Nc1ccc(F)c(Cl)c1)[C@@H]1CC[C@]2(c3cccc(C#N)c3)CC2C1)C(C)C (stereo partly drawn)
tested target: UniProt:Q8JZL2
Activity: inactive
--
molecule: CC(C)N(CCO)CCN(C(=O)Nc1ccc(F)c(Cl)c1)[C@@H]1CC[C@]2(c3cccc(C#N)c3)CC2C1 (stereo partly drawn)
tested target: UniProt:Q8JZL2
Activity: 38%
--
molecule: CC1CC[C@@H](CO)N1CCN(C(=O)Nc1ccc(F)c(Cl)c1)[C@@H]1CC[C@]2(c3cccc(C#N)c3)CC2C1 (stereo partly drawn)
tested target: UniProt:Q8JZL2
Activity: 2%
--
molecule: CC(C)N(CCN(C(=O)Nc1ccc(F)c(Cl)c1)[C@@H]1CC[C@]2(c3cccc(C#N)c3)CC2C1)[C@H](C)CO (stereo partly drawn)
tested target: UniProt:Q8JZL2
Activity: 25%
--
molecule: CC(C)N(CCN(C(=O)Nc1cc(Cl)nc(Cl)c1)[C@@H]1CC[C@]2(c3cccc(C#N)c3)CC2C1)[C@@H](C)CO (stereo partly drawn)
tested target: UniProt:Q8JZL2
Activity: 81%

* * *

target: Melanin-concentrating hormone receptor 1 (Mus musculus) (UniProt Q8JZL2); assay: Ex vivo displacement of [125I]S36057 binding from mouse brain MCHR1 at 30 mg/kg, po after 6 hrs; format: functional, organism-based; parameters: dose 30 mg/kg
Sequence (Q8JZL2 whole entry): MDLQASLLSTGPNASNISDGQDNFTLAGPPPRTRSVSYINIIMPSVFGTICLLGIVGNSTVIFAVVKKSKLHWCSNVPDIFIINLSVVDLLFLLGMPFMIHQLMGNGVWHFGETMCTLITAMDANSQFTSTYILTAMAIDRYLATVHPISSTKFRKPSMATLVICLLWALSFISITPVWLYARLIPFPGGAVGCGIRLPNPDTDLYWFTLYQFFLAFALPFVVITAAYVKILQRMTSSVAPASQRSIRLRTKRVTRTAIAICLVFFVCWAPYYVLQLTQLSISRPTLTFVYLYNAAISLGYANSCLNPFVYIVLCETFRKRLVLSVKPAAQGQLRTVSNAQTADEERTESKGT
Label rule, in plain words: Activity of 80% and up is rule met, under 80% is rule not met.

compound: N#Cc1cccc([C@]23CC[C@@H](N(CCNCCF)C(=O)Nc4cc(Cl)nc(Cl)c4)CC2C3)c1 (some centres not stated)
tested target: Melanin-concentrating hormone receptor 1 (Mus musculus) (UniProt Q8JZL2)
class name: rule met
//
compound: CS(=O)(=O)N1CCC(CN(C(=O)Nc2ccc(F)c(Cl)c2)[C@@H]2CC[C@]3(c4cccc(CN)c4)CC3C2)CC1 (some centres not stated)
tested target: Melanin-concentrating hormone receptor 1 (Mus musculus) (UniProt Q8JZL2)
class name: rule not met
//
compound: NCc1cnc(C2=CCC(N(CCN3CCCC3)C(=O)Nc3ccc(F)c(Cl)c3)CC2)s1 (configuration not stated)
tested target: Melanin-concentrating hormone receptor 1 (Mus musculus) (UniProt Q8JZL2)
class name: rule not met
//
compound: CC(C)N(CCO)CCN(C(=O)Nc1cc(Cl)nc(Cl)c1)[C@@H]1CC[C@]2(c3cccc(C#N)c3)CC2C1 (some centres not stated)
tested target: Melanin-concentrating hormone receptor 1 (Mus musculus) (UniProt Q8JZL2)
class name: rule met
//
compound: CS(=O)(=O)N1CCC(CN(C(=O)Nc2cc(Cl)nc(Cl)c2)[C@@H]2CC[C@]3(c4cccc(CN5CC[C@H](O)C5)c4)CC3C2)CC1 (some centres not stated)
tested target: Melanin-concentrating hormone receptor 1 (Mus musculus) (UniProt Q8JZL2)
class name: rule not met
//
compound: CO/N=C/c1cccc([C@]23CC[C@@H](N(CCN(C(C)C)C(C)C)C(=O)Nc4ccc(F)c(Cl)c4)CC2C3)c1 (some centres not stated)
tested target: Melanin-concentrating hormone receptor 1 (Mus musculus) (UniProt Q8JZL2)
class name: rule not met

* * *

target: hERG (KCNH2) (Homo sapiens); assay: Inhibition of hERG expressed in CHO cells at 5 ug/mL by rubidium efflux assay; type: toxicity, cell-based; conditions: CHO cells that express hERG
measurement kind: inhibition at 5 ug/mL (%)

compound: CC(C)N(CCN(C(=O)Nc1cc(Cl)nc(Cl)c1)[C@@H]1CC[C@]2(c3cccc(C#N)c3)CC2C1)C(C)C (stereo in doubt; 13)
value measured: 59
--
compound: CS(=O)(=O)N1CCC(CN(C(=O)Nc2ccc(F)c(C(F)(F)F)c2)[C@@H]2CC[C@]3(c4cccc(C#N)c4)CC3C2)CC1 (stereo partly drawn)
value measured: -1
--
compound: O=Cc1ccc(C2=CCC(N(CCN3CCCC3)C(=O)Nc3ccc(F)c(Cl)c3)CC2)o1 (stereo not drawn)
value measured: 47
--
compound: CS(=O)(=O)N1CCC(CN(C(=O)Nc2ccc(F)c(Cl)c2)[C@@H]2CC[C@]3(c4cccc(CN)c4)CC3C2)CC1 (stereo partly drawn)
value measured: 14
--
compound: O=C(Nc1ccc(F)c(Cl)c1)N(CCN1CCCC1)C1CC=C(c2cncnc2)CC1 (stereo not drawn)
value measured: 85
--
compound: Cc1ccc(C2=CCC(N(CCN3CCCC3)C(=O)Nc3ccc(F)c(Cl)c3)CC2)s1 (stereo not drawn)
value measured: 12
--
compound: NCc1cnc(C2=CCC(N(CCN3CCCC3)C(=O)Nc3ccc(F)c(Cl)c3)CC2)s1 (stereo not drawn)
value measured: 14
--
compound: CC1CC[C@@H](CO)N1CCN(C(=O)Nc1cc(Cl)nc(Cl)c1)[C@@H]1CC[C@]2(c3cccc(C#N)c3)CC2C1 (stereo partly drawn)
value measured: 60
--
compound: CS(=O)(=O)N1CCC(CN(C(=O)Nc2cc(Cl)nc(Cl)c2)[C@@H]2CC[C@]3(c4cccc(CN)c4)CC3C2)CC1 (stereo partly drawn)
value measured: 3
--
compound: CC(C)N(CCN(C(=O)Nc1ccc(F)c(Cl)c1)[C@@H]1CC[C@]2(c3cccc(C(N)=O)c3)CC2C1)C(C)C (stereo partly drawn)
value measured: 44
--
compound: CS(=O)(=O)N1CCCC(CN(C(=O)Nc2ccc(F)c(Cl)c2)[C@@H]2CC[C@]3(c4cccc(C#N)c4)CC3C2)C1 (stereo partly drawn)
value measured: 9
--
compound: CCN(CC)Cc1cccc([C@]23CC[C@@H](N(CCN(C(C)C)C(C)C)C(=O)Nc4ccc(F)c(Cl)c4)CC2C3)c1 (stereo partly drawn)
value measured: 30
--
compound: CS(=O)(=O)N1CCC(CCN(C(=O)Nc2ccc(F)c(C(F)(F)F)c2)[C@@H]2CC[C@]3(c4cccc(C#N)c4)CC3C2)CC1 (stereo partly drawn)
value measured: 20
